system: SK-MEL-5 melanoma; experiment: NCI tumour cell line growth inhibition, 48 h
property name: TGI

Worked examples, 4 molecules total:
> print(dat)
                                        smi  test.value
1  CCC(C)(C)C(=O)O[C@H]1C[C@@H](C)C=C2C=C[C@H](C)[C@H](CC[C@@H]3C[C@@H](O)CC(=O)O3)[C@H]21     7.87 µM
2  O=C(O)CNC(=O)CO/N=C1/C(c2c(O)[nH]c3ccccc23)=Nc2ccccc21    > 100 µM
3  C=CCc1cc(-c2cc(CC=C)c(O)c(CN(CCCl)CCCl)c2)cc(CN(CCCl)CCCl)c1O     32.7 µM
4        OCC(CN1CCCCC1)(CN1CCCCC1)CN1CCCCC1    > 100 µM

response.value for "CC(C)(C)OC(=O)N(O)[C@@H]1C=C[C@H](n2cnc3c(N)ncnc32)C1" (field: TGI) = > 100 µM

----------
system: RPMI-8226 leukemia; assay: NCI tumour cell line growth inhibition, 48 h
property name: TGI

Please review the entries below; each comes with its answer.
> print(dat)
                                   compound  property.name  test.value
1  Cn1nccc1Nc1nccc(-c2cc3c(s2)C(C)(C)N(CCN2CCOCC2)C3=O)n1            TGI    > 100 µM
2  CC1CN=C(Nc2ccc(F)cc2F)S1 (stereo unspecified)            TGI    > 100 µM
3  O=C(CN1CCN(c2ncnc3ccccc23)CC1)Nc1ccc(Cl)cc1C(=O)c1ccccc1Cl            TGI   > 22.2 µM
4  Cc1ccc(NC(=O)C(=O)C2C(=O)N(c3ccccc3)N=C2N)cc1C (stereo unspecified)            TGI    > 100 µM
5  COc1cc(C2=NN(C)C(c3ccc([N+](=O)[O-])o3)C2)cc(OC)c1OC (stereo unspecified)            TGI     31.8 µM
6                        Cc1nc(Cl)nc(Cl)c1C            TGI    > 100 µM
7  CC1=CC(=NC(=O)CBr)C=C/C1=N\S(=O)(=O)c1ccccc1            TGI     9.35 µM
8               COC(=O)/C=C/c1ccc2c(c1)CCC2            TGI    > 100 µM

Record TGI for all entries; do not skip any.
1. COc1ccc(CN2C[C@H]3[C@@H](CC(=O)O[C@H]3C)CC2=O)cc1
2. Cn1cncc1[C@@](N)(c1ccc(Cl)cc1)c1ccc2c(c1)c(-c1cccc(Cl)c1)cc(=O)n2C

Ans:
> 100 µM
9.79 µM

----------
tested on: NCI-H226 lung; test: NCI tumour cell line growth inhibition, 48 h
Assign GI50 to each entry below.

For each of the compounds below, note its GI50.
1. COc1cc(C(=O)c2ccc3c(c2)OCO3)cc(OC)c1OC
2. CC[C@@H](C(=O)[C@@H](C)[C@@H](O)[C@H](C)[C@@H]1O[C@@H]([C@@H](CC)C(=O)O)CC[C@@H]1C)C1O[C@]2(C=CC(=O)[C@]3(CC[C@@](C)([C@H]4CC[C@](O)(CC)[C@H](C)O4)O3)O2)[C@H](C)C[C@@H]1C (some centres undefined)

Ans:
8.76 µM
1.06 µM

Hi, could you look up GI50 for each item in my list?
1. COc1cc2c3c(n(CCCCOC(=O)C(F)(F)F)c(=O)c2cc1OC)-c1cc2c(cc1C3=O)OCO2
2. C[n+]1c(/C=C\c2ccc(Cl)cc2)ccc2ccccc21
3. O=[N+]([O-])c1ccc(Br)c([N+](=O)[O-])c1
4. COc1ccc2c(c1)C(=O)/C(=C/c1cccc(OCC(=O)Nc3nc4c(s3)CCCC4)c1)O2
5. CCC[CH2][Sn]1([CH2]CCC)[O]C(=O)c2cc(I)cc(I)c2[O]1

Ans:
["98.6 µM", "72.1 µM", "8.36 µM", "11.3 µM", "1.75 µM"]

Report GI50 for each item below.
1. COc1ccc(-c2[nH]c3ccccc3c2C=C(C#N)C#N)cc1
2. COc1cccc(-c2cc(=O)c3cc(OC)c(OC)cc3[nH]2)c1

Ans:
0.873 µM
21.5 µM

----------
system: K-562 leukemia; experiment: NCI tumour cell line growth inhibition, 48 h
Where a SMILES comes first, the peptide text is derived from it. The star is where a group is joined. Boc = CC(C)(C)OC(=O)*
property name: TGI

compound	tested target	property name	test value
O=C1/C(=C/C=C/c2ccccc2)N=C(c2ccccc2)N1C1Nc2cc3c(cc2S1)NC(N1C(=O)/C(=C/C=C/c2ccccc2)N=C1c1ccccc1)S3 (configuration not stated)	K-562 leukemia	TGI	> 100 µM

List reported TGI for each of these compounds:
1. O=C1CCCCC/C1=C\c1ccc(F)cc1
2. Cn1nccc1Nc1nccc(-c2cc3c(s2)C(C)(C)N(CCN2CCOCC2)C3=O)n1
3. COc1ccc2c(c1)c(-c1ccc(-c3cn(S(=O)(=O)c4ccccc4)c4ccc(OC)cc34)s1)cn2S(=O)(=O)c1ccccc1
4. Cn1c2ccccc2c2c(-c3ccccc3)[n+]3ccccc3nc21
5. S=C1SC(=Nc2ccccc2)C(=Nc2ccccc2)N1c1ccccc1

Ans:
["> 100 µM", "> 100 µM", "> 100 µM", "> 100 µM", "> 100 µM"]

I have 6 compounds here; please give me TGI for each one.
1. CC(C)(C)OC(=O)N(O)[C@@H]1C=C[C@H](n2cnc3c(N)ncnc32)C1
2. CCCN(CCC)C(=O)C1=Cc2ccc(-c3ccc(C(=O)N4CCCC4)cc3)cc2N=C(N)C1
3. CC1(C)COC(C23C4C5C2C2C3C4C52I)=N1 (configuration not stated)
4. COC(=O)C1=C(O)c2cc(OC)c(OC)c(OC)c2[C@H](c2cc(OC)c(OC)c(OC)c2)C1C(=O)OC (some centres not stated)
5. c1ccc(Cn2cc3c(c2-c2ccccc2)CCc2cnoc2-3)cc1
6. COc1ccc(C(=O)OCC2OC(n3cnc4c(=S)nc[nH]c43)C(OC(=O)c3ccc(OC)cc3)C2OC(=O)c2ccc(OC)cc2)cc1 (configuration not stated)

Ans:
["> 100 µM", "26.9 µM", "> 100 µM", "86.1 µM", "7.31 µM", "> 100 µM"]

Provide reported TGI for each item, in the same order as listed.
1. C=C1C(=O)O[C@H]2[C@H]1CC/C(COC(=O)CCCCC(=O)OC/C1=C/CC[C@@]3(C)O[C@H]3[C@H]3OC(=O)C(=C)[C@@H]3CC1)=C\CC[C@@]1(C)O[C@@H]21
2. CC(=O)N1N=C2/C(=C/c3ccccc3)CC(C)CC2C1c1ccccc1 (configuration not stated)
3. CC1CN=C(Nc2ccc(F)cc2F)S1 (configuration not stated)
4. C/C(CC(=O)Nc1ccc(Cl)c(Cl)c1)=N/NC(=O)C[n+]1ccccc1
5. CSC1=C(C(=O)Nc2ccc(Cl)cc2)C(N)=NC1=O
6. CCOc1cccc(/C=N/NC(=O)c2ccc(Nc3ccnc(C(F)(F)F)c3)cc2)c1O
7. COc1ccc(CCN2C(=O)C=CC2=O)cc1OC
8. O=C(CN1CCN(c2ncnc3ccccc23)CC1)Nc1ccc(Cl)cc1C(=O)c1ccccc1Cl

Ans:
> 100 µM
20.7 µM
> 100 µM
> 100 µM
> 100 µM
> 31.6 µM
> 100 µM
> 52.4 µM

// each listed compound needs a value for TGI
1. Cc1ccc(Cl)c2c(=O)c3ccc([N+](=O)[O-])cc3sc12
2. CCOC(=O)c1cc2c(ccc3cc(C(=O)OCC)[nH]c32)[nH]1
3. COc1cc2nc(-c3cnc(N(C)C)nc3)nc(NC3CCN(Cc4ccccc4)CC3)c2cc1OC

Ans:
1: > 100 µM; 2: > 100 µM; 3: 1.95 µM

Batch lookup, TGI per entry.
1. CC1=NN(C(=O)CC(=O)Nc2ccccc2C)C(=O)C1N=Nc1ccc(C(=O)O)cc1 (configuration not stated)
2. COCO[C@@H]1C[C@H]2C(O)Nc3ccccc3C(=O)N2C1 (some centres not stated)

Ans:
["> 100 µM", "> 100 µM"]

Fill in TGI for each of the 3 compounds listed.
1. C/C(=C\C(C)COCc1ccccc1)[C@H](COCc1ccccc1)OCc1ccccc1 (some centres not stated)
2. CCOc1ccc(N=NC2C(=O)N(C(=O)CC(=O)Nc3ccccc3OC)N=C2C)cc1 (configuration not stated)
3. CCOC(=O)/C(=C\c1ccc(O)c(OC)c1)C(=O)c1ccccc1

Ans:
1. > 100 µM
2. > 100 µM
3. > 31.8 µM

Quick one: give me TGI for each item below, same order please.
1. COc1ccccc1C1SCC(=O)N1c1ccc(-n2c(-c3ccccc3)nc3ccccc3c2=O)cc1 (configuration not stated)
2. O=S1c2ccccc2N=C(c2ccc3ccccc3c2)CC1C1=CC=CCC1 (configuration not stated)
3. CC(C)CNC(=O)CCc1cccc2c1oc1c(CCN)cccc12
4. O=C(Nc1cc(C(=O)Nc2cccc(S(=O)(=O)O)c2)cc(C(=O)Nc2cccc(S(=O)(=O)O)c2)c1)c1cccc(C(=O)Nc2cc(C(=O)Nc3cccc(S(=O)(=O)O)c3)cc(C(=O)Nc3cccc(S(=O)(=O)O)c3)c2)c1
5. CC(NC(=O)C(NC(=O)OC(C)(C)C)C(C)C)C(=O)N1CCCC1C(=O)NCC(=O)NC(C(=O)NCC(=O)O)C(C)C (configuration not stated) (Boc-VAPGVG-OH; configuration not given here)

Ans:
["> 100 µM", "27.4 µM", "14.2 µM", "58.6 µM", "> 100 µM"]

For every item below, please supply its TGI.
1. CN(C)c1ccc(/C=C2/SC(=S)NC2=O)cc1
2. COC(=O)c1ccc(OCc2ccc3nc(OC)c(OC)nc3c2)cc1

Ans:
1. > 100 µM
2. > 100 µM

Please state, for each entry, its recorded TGI.
1. O=C1NN(c2ccc(C(=O)O)cc2)C(=O)/C1=C\c1ccc([N+](=O)[O-])o1
2. COc1ccc(N2C(=O)C3c4[nH]c5ccc(OC)cc5c4C4CCC(C(C)(C)C)CC4C3C2=O)cc1 (configuration not stated)

Ans:
1. 72.1 µM
2. > 100 µM
